Below is a list of entries, each paired with its recorded relative viability value.
Tested on: NCI-H1915
Experiment: relative viability (nuclei count vs DMSO), 5 days (fraction); higher = more cells survive
Details: first compound 0.8 µM
readout_kind: relative viability

* C=C1C(=O)O[C@@H](CCCCCCCC)[C@@H]1C(=O)O [C-75] + CC(C)C[C@H](NC(=O)[C@H](Cc1ccccc1)NC(=O)c1cnccn1)B(O)O [Bortezomib] (partner 0.002 µM) | 0.935
* Oc1nc(-c2ccc(C(F)(F)F)cc2)nc2c1CSCC2 [XAV939] + C[C@]1(O)C[C@@H](c2nc(-c3ccc4ccc(-c5ccccc5)nc4c3)c3c(N)nccn32)C1 [Linsitinib] (partner 1 µM) | 1.04
* C=C1C(=O)O[C@@H](CCCCCCCC)[C@@H]1C(=O)O [C-75] + N=C(N)NC(=N)NCCc1ccccc1 [Phenformin] (partner 250 µM) | 0.368
* Oc1nc(-c2ccc(C(F)(F)F)cc2)nc2c1CSCC2 [XAV939] + CC(C)C[C@H](NC(=O)[C@H](Cc1ccccc1)NC(=O)c1cnccn1)B(O)O [Bortezomib] (partner 0.002 µM) | 0.983
* C=C1C(=O)O[C@@H](CCCCCCCC)[C@@H]1C(=O)O [C-75] + CS(=O)(=O)N1CCN(Cc2cc3nc(-c4cccc5[nH]ncc45)nc(N4CCOCC4)c3s2)CC1 [Pictilisib] (partner 1 µM) | 0.857
* C=C1C(=O)O[C@@H](CCCCCCCC)[C@@H]1C(=O)O [C-75] + CCNC(=O)c1noc(-c2cc(C(C)C)c(O)cc2O)c1-c1ccc(CN2CCOCC2)cc1 [Luminespib] (partner 0.01 µM) | 0.798
* C=C1C(=O)O[C@@H](CCCCCCCC)[C@@H]1C(=O)O [C-75] + C[C@]1(O)C[C@@H](c2nc(-c3ccc4ccc(-c5ccccc5)nc4c3)c3c(N)nccn32)C1 [Linsitinib] (partner 1 µM) | 0.993
* C=C1C(=O)O[C@@H](CCCCCCCC)[C@@H]1C(=O)O [C-75] + CC(=O)c1c(C)c2cnc(Nc3ccc(N4CCNCC4)cn3)nc2n(C2CCCC2)c1=O [Palbociclib] (partner 0.5 µM) | 0.546
* C=C1C(=O)O[C@@H](CCCCCCCC)[C@@H]1C(=O)O [C-75] + C[C@@H](Oc1cc(-c2cnn(C3CCNCC3)c2)cnc1N)c1c(Cl)ccc(F)c1Cl [Crizotinib] (partner 1 µM) | 0.879
* Oc1nc(-c2ccc(C(F)(F)F)cc2)nc2c1CSCC2 [XAV939] + Cc1nc(NC(=O)N2CCC[C@H]2C(N)=O)sc1-c1ccnc(C(C)(C)C(F)(F)F)c1 [Alpelisib] (partner 2 µM) | 1.03

----------
Below is a list of entries, each paired with its recorded relative viability value.
Tested on: NCI-H520
Assay: relative viability (nuclei count vs DMSO), 5 days (fraction); higher = more cells survive
Details: first compound 0.1581 µM
readout_kind: relative viability

* CC1(C)CCC(c2ccc(Cl)cc2)=C(CN2CCN(c3ccc(C(=O)NS(=O)(=O)c4ccc(N[C@H](CCN5CCOCC5)CSc5ccccc5)c(S(=O)(=O)C(F)(F)F)c4)cc3)CC2)C1 [Navitoclax] + Cc1nc(Nc2ncc(C(=O)Nc3c(C)cccc3Cl)s2)cc(N2CCN(CCO)CC2)n1 [Dasatinib] (partner 0.075 µM) | 0.201
* CC1(C)CCC(c2ccc(Cl)cc2)=C(CN2CCN(c3ccc(C(=O)NS(=O)(=O)c4ccc(N[C@H](CCN5CCOCC5)CSc5ccccc5)c(S(=O)(=O)C(F)(F)F)c4)cc3)CC2)C1 [Navitoclax] + CCNC(=O)c1noc(-c2cc(C(C)C)c(O)cc2O)c1-c1ccc(CN2CCOCC2)cc1 [Luminespib] (partner 0.01 µM) | 0.235
* CC1(C)CCC(c2ccc(Cl)cc2)=C(CN2CCN(c3ccc(C(=O)NS(=O)(=O)c4ccc(N[C@H](CCN5CCOCC5)CSc5ccccc5)c(S(=O)(=O)C(F)(F)F)c4)cc3)CC2)C1 [Navitoclax] + COc1cc2c(Oc3ccc(NC(=O)C4(C(=O)Nc5ccc(F)cc5)CC4)cc3F)ccnc2cc1OCCCN1CCOCC1 [Foretinib] (partner 0.25 µM) | 0.738

----------
Test system: NCI-H1437
Experiment: relative viability (nuclei count vs DMSO), 5 days (fraction); higher = more cells survive
Settings: first compound 2.53 µM
Returns: string. Value is fulfilled if measured relative viability is below 0.9, and not fulfilled if it is greater than or equal to it.

- Oc1nc(-c2ccc(C(F)(F)F)cc2)nc2c1CSCC2 [XAV939] + Cc1nc(NC(=O)N2CCC[C@H]2C(N)=O)sc1-c1ccnc(C(C)(C)C(F)(F)F)c1 [Alpelisib] (partner 2 µM): fulfilled
- Oc1nc(-c2ccc(C(F)(F)F)cc2)nc2c1CSCC2 [XAV939] + Cc1cc(Nc2cc(N3CCN(C)CC3)nc(Sc3ccc(NC(=O)C4CC4)cc3)n2)n[nH]1 [Tozasertib] (partner 0.1 µM): fulfilled
- Oc1nc(-c2ccc(C(F)(F)F)cc2)nc2c1CSCC2 [XAV939] + Cc1nc(Nc2ncc(C(=O)Nc3c(C)cccc3Cl)s2)cc(N2CCN(CCO)CC2)n1 [Dasatinib] (partner 0.075 µM): fulfilled
- C=C1C(=O)O[C@@H](CCCCCCCC)[C@@H]1C(=O)O [C-75] + NC(=O)Nc1cc(-c2cccc(F)c2)sc1C(=O)N[C@H]1CCCNC1 [AZD7762] (partner 0.2 µM): not fulfilled
- Oc1nc(-c2ccc(C(F)(F)F)cc2)nc2c1CSCC2 [XAV939] + CS(=O)(=O)N1CCN(Cc2cc3nc(-c4cccc5[nH]ncc45)nc(N4CCOCC4)c3s2)CC1 [Pictilisib] (partner 1 µM): fulfilled

----------
Tested on: HCC-78
Assay: relative viability (nuclei count vs DMSO), 5 days (fraction); higher = more cells survive
Conditions: first compound 2.53 µM
Returns: string. Value is Criterion met if measured relative viability is below 0.3, and Criterion not met if it is greater than or equal to it.

- C=C1C(=O)O[C@@H](CCCCCCCC)[C@@H]1C(=O)O [C-75] + Cc1nc(NC(=O)N2CCC[C@H]2C(N)=O)sc1-c1ccnc(C(C)(C)C(F)(F)F)c1 [Alpelisib] (partner 2 µM): Criterion not met
- Oc1nc(-c2ccc(C(F)(F)F)cc2)nc2c1CSCC2 [XAV939] + Cc1nc(NC(=O)N2CCC[C@H]2C(N)=O)sc1-c1ccnc(C(C)(C)C(F)(F)F)c1 [Alpelisib] (partner 2 µM): Criterion met
- Oc1nc(-c2ccc(C(F)(F)F)cc2)nc2c1CSCC2 [XAV939] + CC(=O)Nc1cccc(-n2c(=O)n(C3CC3)c(=O)c3c(Nc4ccc(I)cc4F)n(C)c(=O)c(C)c32)c1 [Trametinib] (partner 0.02 µM): Criterion not met
- Oc1nc(-c2ccc(C(F)(F)F)cc2)nc2c1CSCC2 [XAV939] + N=C(N)NC(=N)NCCc1ccccc1 [Phenformin] (partner 250 µM): Criterion not met

----------
Tested on: HCC-44
Experiment: relative viability (nuclei count vs DMSO), 5 days (fraction); higher = more cells survive
Conditions: first compound 2.53 µM
Returns: string. Value is true (1) if measured relative viability is below 0.8, and false (0) if it is greater than or equal to it.

• C=C1C(=O)O[C@@H](CCCCCCCC)[C@@H]1C(=O)O [C-75] + CC(C)C[C@H](NC(=O)[C@H](Cc1ccccc1)NC(=O)c1cnccn1)B(O)O [Bortezomib] (partner 0.002 µM) = true (1)
• C=C1C(=O)O[C@@H](CCCCCCCC)[C@@H]1C(=O)O [C-75] + CS(=O)(=O)CCNCc1ccc(-c2ccc3ncnc(Nc4ccc(OCc5cccc(F)c5)c(Cl)c4)c3c2)o1 [Lapatinib] (partner 2 µM) = false (0)
• Oc1nc(-c2ccc(C(F)(F)F)cc2)nc2c1CSCC2 [XAV939] + C[C@@H](Oc1cc(-c2cnn(C3CCNCC3)c2)cnc1N)c1c(Cl)ccc(F)c1Cl [Crizotinib] (partner 1 µM) = true (1)
• C=C1C(=O)O[C@@H](CCCCCCCC)[C@@H]1C(=O)O [C-75] + C[C@@H](Oc1cc(-c2cnn(C3CCNCC3)c2)cnc1N)c1c(Cl)ccc(F)c1Cl [Crizotinib] (partner 1 µM) = true (1)
• Oc1nc(-c2ccc(C(F)(F)F)cc2)nc2c1CSCC2 [XAV939] + CS(=O)(=O)CCNCc1ccc(-c2ccc3ncnc(Nc4ccc(OCc5cccc(F)c5)c(Cl)c4)c3c2)o1 [Lapatinib] (partner 2 µM) = false (0)

----------
Test system: BEN
Experiment: relative viability (nuclei count vs DMSO), 5 days (fraction); higher = more cells survive
Conditions: first compound 2.53 µM
Below is a list of entries, each paired with its recorded relative viability value.
readout_kind: relative viability

* C=C1C(=O)O[C@@H](CCCCCCCC)[C@@H]1C(=O)O [C-75] + Cc1cc(Nc2cc(N3CCN(C)CC3)nc(Sc3ccc(NC(=O)C4CC4)cc3)n2)n[nH]1 [Tozasertib] (partner 0.1 µM) | 0.484
* C=C1C(=O)O[C@@H](CCCCCCCC)[C@@H]1C(=O)O [C-75] + C[C@@H](Oc1cc(-c2cnn(C3CCNCC3)c2)cnc1N)c1c(Cl)ccc(F)c1Cl [Crizotinib] (partner 1 µM) | 0.755
* C=C1C(=O)O[C@@H](CCCCCCCC)[C@@H]1C(=O)O [C-75] + C[C@]1(O)C[C@@H](c2nc(-c3ccc4ccc(-c5ccccc5)nc4c3)c3c(N)nccn32)C1 [Linsitinib] (partner 1 µM) | 0.873
* C=C1C(=O)O[C@@H](CCCCCCCC)[C@@H]1C(=O)O [C-75] + CC(C)C[C@H](NC(=O)[C@H](Cc1ccccc1)NC(=O)c1cnccn1)B(O)O [Bortezomib] (partner 0.002 µM) | 0.639
* Oc1nc(-c2ccc(C(F)(F)F)cc2)nc2c1CSCC2 [XAV939] + CCNC(=O)c1noc(-c2cc(C(C)C)c(O)cc2O)c1-c1ccc(CN2CCOCC2)cc1 [Luminespib] (partner 0.01 µM) | 0.262
* Oc1nc(-c2ccc(C(F)(F)F)cc2)nc2c1CSCC2 [XAV939] + CC(=O)Nc1cccc(-n2c(=O)n(C3CC3)c(=O)c3c(Nc4ccc(I)cc4F)n(C)c(=O)c(C)c32)c1 [Trametinib] (partner 0.02 µM) | 0.88
* Oc1nc(-c2ccc(C(F)(F)F)cc2)nc2c1CSCC2 [XAV939] + O=C(c1cc(Cc2n[nH]c(=O)c3ccccc23)ccc1F)N1CCN(C(=O)C2CC2)CC1 [Olaparib] (partner 8 µM) | 0.845
